- studySystem: Xanthine dehydrogenase/oxidase (Homo sapiens, UniProt P47989)
- Sequence (P47989 whole entry): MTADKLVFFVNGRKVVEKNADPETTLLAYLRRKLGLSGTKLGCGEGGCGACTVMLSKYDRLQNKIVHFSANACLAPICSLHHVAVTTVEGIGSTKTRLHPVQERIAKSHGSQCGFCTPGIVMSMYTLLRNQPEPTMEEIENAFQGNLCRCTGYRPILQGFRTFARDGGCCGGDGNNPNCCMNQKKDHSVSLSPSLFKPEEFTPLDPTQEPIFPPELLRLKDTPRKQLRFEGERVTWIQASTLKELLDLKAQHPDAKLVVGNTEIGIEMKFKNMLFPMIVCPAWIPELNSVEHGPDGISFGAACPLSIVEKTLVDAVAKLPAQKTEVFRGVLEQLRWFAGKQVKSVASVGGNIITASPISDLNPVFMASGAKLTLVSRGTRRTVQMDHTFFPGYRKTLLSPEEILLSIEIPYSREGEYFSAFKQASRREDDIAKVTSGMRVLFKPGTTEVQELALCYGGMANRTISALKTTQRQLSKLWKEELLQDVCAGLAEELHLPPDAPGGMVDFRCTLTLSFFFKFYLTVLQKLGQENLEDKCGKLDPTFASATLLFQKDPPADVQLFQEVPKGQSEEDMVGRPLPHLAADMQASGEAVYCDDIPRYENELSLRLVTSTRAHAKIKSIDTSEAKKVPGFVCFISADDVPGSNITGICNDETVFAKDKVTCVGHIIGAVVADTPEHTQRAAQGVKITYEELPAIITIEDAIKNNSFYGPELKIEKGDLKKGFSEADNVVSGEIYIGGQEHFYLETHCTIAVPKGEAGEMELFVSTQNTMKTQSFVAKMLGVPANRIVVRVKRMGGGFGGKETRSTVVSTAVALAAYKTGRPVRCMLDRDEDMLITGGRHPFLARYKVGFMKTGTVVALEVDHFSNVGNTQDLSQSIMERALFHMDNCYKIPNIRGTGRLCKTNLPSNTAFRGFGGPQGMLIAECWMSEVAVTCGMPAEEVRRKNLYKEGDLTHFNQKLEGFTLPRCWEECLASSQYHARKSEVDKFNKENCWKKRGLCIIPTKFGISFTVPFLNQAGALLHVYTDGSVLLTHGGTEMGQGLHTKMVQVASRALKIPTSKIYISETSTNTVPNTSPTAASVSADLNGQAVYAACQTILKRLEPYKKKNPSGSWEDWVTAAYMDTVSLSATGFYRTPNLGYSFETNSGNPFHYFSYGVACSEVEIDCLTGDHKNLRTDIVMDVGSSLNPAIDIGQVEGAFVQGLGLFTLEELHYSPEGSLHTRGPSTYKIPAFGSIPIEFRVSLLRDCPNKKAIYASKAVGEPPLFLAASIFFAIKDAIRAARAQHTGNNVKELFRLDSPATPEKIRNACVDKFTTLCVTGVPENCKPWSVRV
readoutLabel: pIC50
To interpret pIC50, take it as minus log10 of a concentration measured in moles per litre.

Test item Cc1nc(-c2ccc(OCC(C)C)c(C#N)c2)sc1C(=O)O ; Xanthine dehydrogenase/oxidase (Homo sapiens, UniProt P47989); reported pIC50 was 7.89
